- TESTED ON: Signal transducer and activator of transcription 3 (Homo sapiens) (UniProt P40763)
- Sequence (P40763 whole entry): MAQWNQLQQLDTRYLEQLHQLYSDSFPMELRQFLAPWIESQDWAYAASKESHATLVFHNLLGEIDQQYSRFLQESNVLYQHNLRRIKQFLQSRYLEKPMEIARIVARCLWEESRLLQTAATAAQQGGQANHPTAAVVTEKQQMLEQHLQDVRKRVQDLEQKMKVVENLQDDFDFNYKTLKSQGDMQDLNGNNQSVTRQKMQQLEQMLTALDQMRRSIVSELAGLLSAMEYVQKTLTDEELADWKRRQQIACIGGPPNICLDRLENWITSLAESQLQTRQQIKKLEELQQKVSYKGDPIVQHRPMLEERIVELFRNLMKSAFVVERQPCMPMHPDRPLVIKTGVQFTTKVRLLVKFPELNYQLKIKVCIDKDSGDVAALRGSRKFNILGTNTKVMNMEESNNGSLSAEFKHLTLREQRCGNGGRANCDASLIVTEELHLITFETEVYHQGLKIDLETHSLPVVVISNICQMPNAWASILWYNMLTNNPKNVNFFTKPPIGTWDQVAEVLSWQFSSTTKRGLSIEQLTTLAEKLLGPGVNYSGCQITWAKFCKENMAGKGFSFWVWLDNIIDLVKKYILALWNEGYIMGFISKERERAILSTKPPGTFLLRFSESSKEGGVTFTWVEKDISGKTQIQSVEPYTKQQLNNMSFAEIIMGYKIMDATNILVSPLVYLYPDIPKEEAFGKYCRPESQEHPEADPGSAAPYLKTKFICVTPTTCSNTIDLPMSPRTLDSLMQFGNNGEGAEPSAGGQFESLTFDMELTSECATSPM
- EXPERIMENT DESCRIPTION: Inhibition of STAT3 in human HCT116 cells at 10 uM after 24 hrs by firefly and renilla dual luciferase assay
- Assay type: cell-based
- TEST SETTINGS: HCT-116

>  <MOLECULE>
O=C(Nc1ccc(C(F)(F)F)cc1)C1Cc2cc(=O)[nH]nc2-c2ccccc21 (single isomer, unassigned; (-))

>  <TESTED ON>
Signal transducer and activator of transcription 3 (Homo sapiens) (UniProt P40763)

>  <inhibition>
2%

$$$$
>  <MOLECULE>
C[C@H]1COC2=C1C(=O)C(=O)c1c2ccc2c1CCCC2(C)C

>  <TESTED ON>
Signal transducer and activator of transcription 3 (Homo sapiens) (UniProt P40763)

>  <inhibition>
78%

$$$$
>  <MOLECULE>
O=C(Nc1ccc(C(F)(F)F)cc1)C1Cc2cc(=O)[nH]nc2-c2ccccc21 (racemic)

>  <TESTED ON>
Signal transducer and activator of transcription 3 (Homo sapiens) (UniProt P40763)

>  <inhibition>
2%

$$$$
>  <MOLECULE>
O=C1CC2CC(C(=O)Nc3ccc(C(F)(F)F)cc3)c3ccccc3C2=NN1 (single isomer, unassigned; (+)-1)

>  <TESTED ON>
Signal transducer and activator of transcription 3 (Homo sapiens) (UniProt P40763)

>  <inhibition>
9%

$$$$
>  <MOLECULE>
O=C1CC2CC(C(=O)Nc3ccc(C(F)(F)F)cc3)c3ccccc3C2=NN1 (single isomer, unassigned; (-)-1)

>  <TESTED ON>
Signal transducer and activator of transcription 3 (Homo sapiens) (UniProt P40763)

>  <inhibition>
9%

$$$$
